molecular target: human V1a receptor (Homo sapiens, UniProt P37288); construct: expressed in transfected cells; host or cells: CHO K1 (Chinese hamster ovary), also stably transfected with modified aequorin; assay: Cellular in vitro assay for determining vasopressin receptor activity (V1a cell line, aequorin luminescence); format: cell-based; conditions: ratio of cellular IC50 values, human V2 over human V1a
Sequence (P37288 whole entry): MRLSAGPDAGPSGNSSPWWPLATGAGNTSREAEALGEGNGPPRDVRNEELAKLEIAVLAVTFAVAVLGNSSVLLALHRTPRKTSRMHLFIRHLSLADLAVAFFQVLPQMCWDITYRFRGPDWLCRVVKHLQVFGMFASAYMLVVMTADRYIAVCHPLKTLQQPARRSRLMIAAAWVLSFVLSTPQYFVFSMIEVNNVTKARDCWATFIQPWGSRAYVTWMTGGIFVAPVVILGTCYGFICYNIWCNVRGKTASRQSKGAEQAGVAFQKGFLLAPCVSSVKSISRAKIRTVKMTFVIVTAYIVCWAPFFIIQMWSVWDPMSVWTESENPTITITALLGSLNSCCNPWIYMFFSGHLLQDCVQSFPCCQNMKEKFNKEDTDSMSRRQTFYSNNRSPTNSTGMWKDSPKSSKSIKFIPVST
measured-parameter: ratio IC50 hV2/hV1a

COc1nccnc1-n1nc(Cn2nc(-c3ccc(Cl)cc3)n(C[C@H](O)C(F)(F)F)c2=O)nc1C(N)=O 2.6
NC(=O)c1nc(Cn2nc(-c3ccc(Cl)cc3)n(C[C@H](O)C(F)(F)F)c2=O)nn1-c1cccc(Cl)c1 0.2
NC(=O)c1nc(Cn2nc(-c3ccc(Cl)cc3)n(C[C@H](O)C(F)(F)F)c2=O)nn1-c1ccccc1[N+](=O)[O-] 11.7
CCc1cccc(C)c1-n1nc(Cn2nc(-c3ccc(Cl)cc3)n(C[C@H](O)C(F)(F)F)c2=O)nc1C(N)=O 0.5
NC(=O)c1nc(Cn2nc(-c3ccc(Cl)cc3)n(C[C@H](O)C(F)(F)F)c2=O)nn1-c1ccccc1F 1.8
Cc1ccccc1-n1nc(Cn2nc(-c3ccc(Cl)cc3)n(C[C@H](O)C(F)(F)F)c2=O)nc1C(N)=O 7.5
COC(=O)c1cccnc1-n1nc(Cn2nc(-c3ccc(Cl)cc3)n(C[C@H](O)C(F)(F)F)c2=O)nc1C(N)=O 6.1
NC(=O)c1nc(Cn2nc(-c3ccc(Cl)cc3)n(CC(=O)C(F)(F)F)c2=O)nn1-c1ccccc1Cl 9.9
NC(=O)c1nc(Cn2nc(-c3ccc(Cl)cc3)n(C[C@@H](O)C(F)(F)F)c2=O)nn1-c1ccccc1Cl 23.0
NC(=O)c1nc(Cn2nc(-c3ccc(Cl)cc3)n(C[C@H](O)C(F)(F)F)c2=O)nn1-c1c(F)cccc1F 2.2
NC(=O)c1nc(Cn2nc(-c3ccc(Cl)cc3)n(C[C@H](O)C(F)(F)F)c2=O)nn1-c1ccccc1Br 15.6

These entries and their values trace back to patent US20190119251A1.
